Test system: HLE
Test: Antiproliferative activity against human HLE cells after 10 days
Type: functional, cell-based
Conditions: 240 h
Attribute measured: IC50

Enquiry: Quickly give me recorded IC50 for O=C(NC1CN(Cc2cnn(Cc3ccccc3)c2)C1)c1cn(C2CC2)nn1
Return: > 10 µM

* * *

Test system: CCRF-CEM
Assay: Antiproliferative activity against human CCRF-CEM cells after 10 days
Type: functional, cell-based
Details: 240 h
pIC50: −log10 of the molar value.
Attribute measured: pIC50

Enquiry: Give a short answer stating reported pIC50 for O=C(NC1CN(Cc2cnn(Cc3ccccc3)c2)C1)c1cn(C2CC2)nn1 .
Return: < 5.00

* * *

System: Y79
Experiment: Antiproliferative activity against human Y79 cells in 3D growth culture
Type: functional, cell-based
pIC50: −log10 of the molar value.
Attribute measured: pIC50

Enquiry: Look up pIC50 of N[C@H]1CC[C@H](S(=O)(=O)N2[C@@H]3CC[C@H]2C[C@@H](NC(=O)c2cc(C4CC4)on2)C3)CC1 and report it.
Return: < 4.60

All figures here come from ChEMBL document CHEMBL5674880.
